- Test system: EKVX
- Test name: NCI tumour cell line growth inhibition, 48 h
Calls of active or inactive are those of the source. No stated cut-off is given here; in the data, active = GI50 up to about 1.1 µM and inactive = higher. Where a SMILES comes first, the peptide text is derived from it. The star is where a group is joined. Cbz = O=C(OCc1ccccc1)*; OBn = c1ccc(CO*)cc1
Reported property: GI50

Some solved cases for reference:
COc1ccc2c(c1)N(CCC1CCCCN1C)c1ccccc1S2 (stereo not drawn)
19.4 µM (inactive)
CCNC(=O)O/N=C1\CCC2[C@@H]3CC=C4C[C@@H](OC5CCCCO5)CC[C@]4(C)C3CC[C@]12C (stereo partly drawn)
2.51 µM (inactive)
S=C(/N=c1/sc(Nc2ccccc2)nc2sc3c(c12)CCCC3)Nc1ccccc1
> 62.5 µM (inactive)
O=[N+]([O-])/C(C(Cl)=C(Cl)Cl)=C(\Nc1ccccc1)n1nnc2ccccc21
> 100 µM (inactive)
CC1(C)N=c2c(ncn2CCCO)=C(C(N)=O)N1
> 100 µM (inactive)
Cc1ccc(S(=O)(=O)NNC(=O)Nc2ccc(Cl)cc2)cc1
> 100 µM (inactive)
Cc1cccc(NC(=O)CC(=O)N2N=C(N3c4ccccc4Sc4ccccc43)CC2c2ccccc2)c1 (stereo not drawn)
> 100 µM (inactive)
S=C(N1CCN(c2cccc(Cl)c2)CC1)N1CCN(c2cccc(Cl)c2)CC1
35 µM (inactive)
COC(=O)C(Cc1ccc2c(c1)OCO2)(NC(=O)c1ccccc1)P(=O)(OC)OC (stereo not drawn)
> 100 µM (inactive)
O=C(/C=C\c1ccccc1O)c1ccc(O)cc1O
> 100 µM (inactive)

For the 2 compounds below, give their GI50 values.
1. COC(=O)C(Cc1ccc(O)cc1)NC(=O)C(CC(=O)OCc1ccccc1)NC(=O)OCc1ccccc1 (stereo not drawn) (Cbz-Asp(OBn)-Tyr-OMe; configuration not given here)
2. Clc1ccc(/C=N/c2ccc3c(c2)Cc2ccccc2-3)c(Cl)c1

[A]
1. 23.8 µM (inactive)
2. > 100 µM (inactive)

Please give GI50, item by item, for the list that follows.
1. O=C(CC1(O)C(=O)Nc2ccccc21)c1ccccc1Cl (stereo not drawn)
2. CC(C)(C)OC(=O)NC(Cc1ccc(OC(C)(C)C)cc1)C(=O)N[C@H]1CCC[C@H]1C(=O)NC(Cc1ccccc1)C(=O)N1CCCC1C(N)=O (stereo partly drawn)
3. O=c1c2ccccc2nc2n1CCc1c-2[nH]c2cc3c(cc12)OCO3
4. O=C(Nc1cccc2cnccc12)c1cc2c(cc1Cl)Sc1nccn1S2(=O)=O
5. C=CC(C)(C)C(=C)C(=O)Nc1ccccc1I
6. CCCCCCCCCCCCSC(=S)c1c(C)[nH]n(CCCCCCCCCCCC)c1=O

[A]
> 100 µM (inactive)
> 100 µM (inactive)
> 25 µM (inactive)
20.7 µM (inactive)
83.9 µM (inactive)
27.5 µM (inactive)

----------
- Test system: SK-MEL-2
- Test name: NCI tumour cell line growth inhibition, 48 h
Active and inactive are the calls of the source. No stated cut-off is given here; in the data, active = GI50 up to about 1.1 µM and inactive = higher.
Reported property: GI50

CC(C)OC(=O)c1ccc(CCC2=CC(=O)C(Br)=CC2=O)cc1
15.6 µM (inactive)
COc1ccc(C(=O)/C=C/c2ccc(OCC(=O)O)cc2)cc1
44.5 µM (inactive)
O=C(CC1(O)C(=O)Nc2c(Cl)ccc(Cl)c21)c1ccc(Cl)cc1 (stereo not drawn)
25.2 µM (inactive)
CCSC1=CC2(O)N(CCc3ccc(OC)c(OC)c3)C(=O)CC2(C(=O)OC)CC1=O (stereo not drawn)
21.1 µM (inactive)

# map each compound to its GI50
1. CCCCn1cnc2c(SC)ncnc21
2. CC1C=C(OC(=O)c2ccccc2)C(=O)C(n2cc(F)c(=O)[nH]c2=O)O1 (stereo not drawn)

[A]
> 100 µM (inactive)
79.3 µM (inactive)

----------
Answer each item with its documented GI50.
- System: UACC-257
- Test name: NCI tumour cell line growth inhibition, 48 h
Activity calls are given as the source filed them. No stated cut-off is given here; in the data, active = GI50 up to about 1.1 µM and inactive = higher.

Clc1nc2c(C#Cc3ccccc3)ncnc2n1C1CCCCO1 (centres undefined)
15 µM (inactive)
CC(C)(C)OC(=O)NC(Cc1ccc(OC(C)(C)C)cc1)C(=O)N[C@H]1CCC[C@H]1C(=O)NC(Cc1ccccc1)C(=O)N1CCCC1C(N)=O (some centres undefined)
> 100 µM (inactive)
NC(=S)C1=C(N)Oc2c(c(=O)oc3ccccc23)C1c1ccc(Br)cc1 (centres undefined)
> 100 µM (inactive)

Now turn to the next molecule.
[Q] For the molecule CC(=O)OCC1OC(N2C(c3ccccc3)=CC(c3ccccc3)C(C#N)=C2S)C(OC(C)=O)C(OC(C)=O)C1OC(C)=O (centres undefined) , what GI50 is on record?
[A] 3.63 µM (inactive)

----------
- Tested on: TK-10
- Test name: NCI tumour cell line growth inhibition, 48 h
Calls of active or inactive are those of the source. Rule as the data show it: active = GI50 up to about 1.1 µM and inactive = higher.
Write down the outcome that applies. Available outcomes: active, inactive

The following molecules have reported results that may help.
CN(C)C1C(O)=C(C(=O)NCN2CCCC2)C(=O)C2(O)C(O)=C3C(=O)c4c(O)cccc4C(C)(O)C3CC12 (stereo not given)
inactive
CC(C)[C@H]1NC(=O)[C@H]2N=C(O[C@@H]2C)[C@@H]2CCCN2C(=O)[C@H](Cc2ccccc2)NC(=O)[C@@H]2CSC(=N2)[C@@H](Cc2ccccc2)NC(=O)[C@@H]2CSC1=N2
inactive
Cc1cccc(NC(=O)CSc2nnc(Cc3ccccc3)o2)c1
inactive
Nc1nc2c(c(=O)[n-]1)[n+](CCO)cn2C1OC(CO)C(O)C1O (stereo not given)
inactive
O=C(Nc1cccc(C(F)(F)F)c1)c1cc(Br)cc(Br)c1O
inactive
Cc1cccc(C)c1NC(=O)CCc1nnc2s/c(=C\c3ccc(Cl)cc3)c(=O)n12
inactive
S=C1NCCN1C(=S)NC1CCCCC1
inactive
COc1ccc2c(c1)N(CCC1CCCCN1C)c1ccccc1S2 (stereo not given)
inactive

[Q] Please indicate how the test categorized Cc1cc2c([N+](=O)[O-])cc3c(c2o1)C(=O)C=CC3=O .
[A] inactive

[Q] Fill in: this test's call for COC(=O)Cc1c(/C=C/C(C)(C)n2cnc(CCN3C(=O)CCC3=O)c2)[nH]c2ccccc12 is ___
[A] inactive

[Q] Record lookup: outcome of this test for CC1(C)N=c2c(ncn2CCCO)=C(C(N)=O)N1 ?
[A] inactive

[Q] For CC(=O)c1ccc(NC(=O)C(=O)Nn2c(S)nc3ccccc3c2=O)cc1 , what call appears in the results of this test?
[A] inactive

[Q] For CCCc1n[nH]c(CCC(=O)N(Cc2ccccc2)Cc2ccccc2)c1CC , which call appears in the assay record?
[A] inactive

[Q] Kindly provide the recorded test outcome for the following molecule: S=C(N1CCN(c2cccc(Cl)c2)CC1)N1CCN(c2cccc(Cl)c2)CC1
[A] inactive

[Q] Per the assay record, what outcome was assigned to c1ccc(P(CCP(CCP(c2ccccc2)c2ccccc2)c2ccccc2)CCP(c2ccccc2)c2ccccc2)cc1 (stereo not given) ?
[A] inactive

----------
- Tested on: M14
- Test name: NCI tumour cell line growth inhibition, 48 h
Active and inactive are the calls of the source. Rule as the data show it: active = GI50 up to about 1.1 µM and inactive = higher.
Hello, when you answer, please use one of the following outcomes: 1 (yes) = active, 0 (no) = inactive

Nc1nc2cc3nc(N)c(N)nc3cc2nc1N
0 (no)
Cc1ccccc1/N=N/c1ccc(/N=N/c2c(O)ccc3cc(S(=O)(=O)O)cc(S(=O)(=O)O)c23)c(C)c1
0 (no)
COc1ccc2c[n+](C)c3c4cc(OC)c(OC)cc4ccc3c2c1
0 (no)
N#CC(c1ccccc1)N1CCCN(C(C#N)c2ccccc2)C1c1ccccc1O (stereo not given)
0 (no)
COc1ccc(C(=O)/C=C/c2ccc(OCC(=O)O)cc2)cc1
0 (no)
Cc1ccc(S(=O)(=O)NNC(=S)Nc2cccc3ccccc23)cc1
0 (no)

[Q] Fill in: this test's call for COc1cc(/C=C/c2nc(NC(=S)Nc3ccccc3)nnc2C)cc(OC)c1OC is ___
[A] 0 (no)

[Q] Hi team, can someone confirm the assay call for O=S(=O)(N/N=C/c1ccc(Cl)cc1Cl)c1ccccc1 ?
[A] 0 (no)

[Q] Please state the recorded outcome for this molecule: C[N+](C)([O-])Cc1cccc(NC(=O)c2ccc(C(=O)Nc3cccc(C[N+](C)(C)[O-])c3)cc2)c1
[A] 0 (no)

[Q] Assay outcome for Cc1cccc(NC(=O)CC(=O)N2N=C(N3c4ccccc4Sc4ccccc43)CC2c2ccccc2)c1 (stereo not given) : what was it?
[A] 0 (no)

[Q] Dear all, I need the recorded test outcome for COc1cc(C=C2C(C)=NN(c3cccc(Cl)c3)C23SCC(=O)N3c2nc3ccccc3s2)ccc1O (stereo not given) , thank you.
[A] 0 (no)

----------
- System: UO-31
- Test name: NCI tumour cell line growth inhibition, 48 h
Active and inactive are the calls of the source. No stated cut-off is given here; in the data, active = GI50 up to about 1.1 µM and inactive = higher.
Could you please report measured GI50 for the items listed next?

Field: example entries. Status: answers known.
COc1ccc(C(=O)/C=C/c2ccc(O)c(O)c2)c(OC)c1
9.33 µM (inactive)
COC1C=COC2(C)Oc3c(C)c(O)c4c(O)c(c(C5SCCS5)c(O)c4c3C2=O)NC(=O)/C(C)=C\C=CC(C)C(O)C(C)C(O)C(C)C(OC(C)=O)C1C (stereo not given)
12.1 µM (inactive)
COc1cc(-c2n[nH]cc2CCCC(=O)Nc2ccccc2[N+](=O)[O-])ccc1O
79.8 µM (inactive)
N#Cc1ccccc1OCCOc1ccccc1C#N
> 100 µM (inactive)

Let us move to another entry and its GI50.
[Q] Hello, I am looking for reported GI50 with UO-31 for S=C(N1CCN(c2cccc(Cl)c2)CC1)N1CCN(c2cccc(Cl)c2)CC1 . Could you help?
[A] 24 µM (inactive)
